// provenance: patent US20240327497A1

# Study system: canine FcRn (FcRn large subunit with canine beta-2-microglobulin) (canine)
# Test: SPR pH 5.9, IgG coupled to C1 chip, 1:1 kinetic fit
Test readout: pKd
// scale note: pKd = -log10(conc_M); give the bare number

>  <Binder>
anti-NGF canine IgGB antibody, Fc variant A426Y + T286L (antibody, part only; not given: Anti-NGF variable domains, not shown: another chain or arm of the molecule; small tags and cut ends) Fc: APEMLGGPSVFIFPPKPKDTLLIARTPEVTCVVVDLDPEDPEVQISWFVDGKQMQLAKTQPREEQFNGTYRVVSVLPIGHQDWLKGKQFTCKVNNKALPSPIERTISKARGQAHQPSVYVLPPSREELSKNTVSLTCLIKDFFPPDIDVEWQSNGQQEPESKYRTTPPQLDEDGSYFLYSKLSVDKSRWQRGDTFICYVMHEALHNHYTQESLSHSPGK

>  <pKd>
7.37

$$$$
>  <Binder>
anti-NGF canine IgGB antibody, Fc variant A426H + Y436H (antibody, part only; not given: anti-NGF variable domains and light chain, not shown: another chain or arm of the molecule; small tags and cut ends) Fc: APEMLGGPSVFIFPPKPKDTLLIARTPEVTCVVVDLDPEDPEVQISWFVDGKQMQTAKTQPREEQFNGTYRVVSVLPIGHQDWLKGKQFTCKVNNKALPSPIERTISKARGQAHQPSVYVLPPSREELSKNTVSLTCLIKDFFPPDIDVEWQSNGQQEPESKYRTTPPQLDEDGSYFLYSKLSVDKSRWQRGDTFICHVMHEALHNHHTQESLSHSPGK

>  <pKd>
6.79

$$$$

For the binder anti-NGF canine IgGB antibody, Fc variant A426Y + Y436H (antibody, part only; not given: anti-NGF variable domains and light chain, not shown: another chain or arm of the molecule; small tags and cut ends) Fc: APEMLGGPSVFIFPPKPKDTLLIARTPEVTCVVVDLDPEDPEVQISWFVDGKQMQTAKTQPREEQFNGTYRVVSVLPIGHQDWLKGKQFTCKVNNKALPSPIERTISKARGQAHQPSVYVLPPSREELSKNTVSLTCLIKDFFPPDIDVEWQSNGQQEPESKYRTTPPQLDEDGSYFLYSKLSVDKSRWQRGDTFICYVMHEALHNHHTQESLSHSPGK , what pKd is on record?
7.24
